Measured Activity, listed per entry for reference.
# System: Escherichia coli
# method.summary: Inhibition of Escherichia coli MurD ligase catalyzed addition of D-Glu to UDP-MurNAc-L-Ala assessed as residual activity at 500 uM after 15 mins by colorimetric analysis

Observe how each entry below is paired with its result.
                              record_smiles               tgt  value
0  O=C(O)/C=C/c1ccc(NCc2cccc(C(=O)N[C@H](CCC(=O)O)C(=O)O)c2)cc1  Escherichia coli    96%
1  O=C(O)CC[C@@H](NC(=O)c1ccc(NCc2ccc(/C=C3\SC(=O)NC3=O)cc2)cc1)C(=O)O  Escherichia coli    88%

Fill blank: measured Activity of the compound `O=C(O)CC[C@@H](NC(=O)c1cc(CNc2ccc(/C=C3\SC(=O)NC3=O)cc2)ccc1F)C(=O)O` is ____. 71%

Fill blank: measured Activity of the compound `O=C(O)CC[C@@H](NC(=O)c1cccc(CNc2ccc(/C=C3\NC(=O)NC3=O)cc2)c1)C(=O)O` is ____. 99%
